TEST_SUMMARY: TRM-201-PK-102 single-dose four-period crossover pharmacokinetic study, fasted healthy subjects
Assay type: in vivo, human
CONDITION_LABEL: female, human, plasma, oral, 17.5 mg, 102 study, females, read-out: geometric mean AUC0-∞
READOUT_TYPE: AUC(0-inf) (ng·h/mL)

1) CS(=O)(=O)c1ccc(C2=C(c3ccccc3)C(=O)OC2)cc1 [TRM-201] : 3490

====

TEST_SUMMARY: TRM-201-PK-102 single-dose four-period crossover pharmacokinetic study, fasted healthy subjects
Type: in vivo, human
CONDITION_LABEL: human, plasma, oral, 17.5 mg, 102 study, Hispanic or Latino subjects, read-out: geometric mean AUC0-∞
Protocol: A Single-Dose, Open-Label, Phase 1, Four-Period Crossover Pharmacokinetic Study of TRM-201 (Rofecoxib) 12.5 mg, 17.5 mg, 20 mg and 25 mg Administered to Healthy Subjects in a Fasting State, with Comparison to Historical Pharmacokinetic Parameters of Previously Marketed Rofecoxib (“TRM-201-PK-102” or “102 PK Study”) […] In each of the four dosing periods, subjects fasted overnight for at least 10 hours before study drug dosing. […] Pharmacokinetic and safety endpoints were evaluated. […]
READOUT_TYPE: AUC(0-inf) (ng·h/mL)

1) CS(=O)(=O)c1ccc(C2=C(c3ccccc3)C(=O)OC2)cc1 [TRM-201] : 3330

====

TEST_SUMMARY: TRM-201-PK-101 single-dose pharmacokinetic study, 25 mg, fasted healthy subjects
Format: in vivo, human
CONDITION_LABEL: human, plasma, oral, 25 mg, fasted, FIG. 25; read-out: geometric mean AUC0-∞
READOUT_TYPE: AUC(0-inf) (ng·h/mL)

1. CS(=O)(=O)c1ccc(C2=C(c3ccccc3)C(=O)OC2)cc1 : 4640

====

TEST_SUMMARY: TRM-201-PK-102 single-dose four-period crossover pharmacokinetic study, fasted healthy subjects
Type: in vivo, human
CONDITION_LABEL: human, plasma, oral, 25 mg, 102 study, 41-52 years, read-out: arithmetic mean Cmax
READOUT_TYPE: Cmax (ng/mL)

1) CS(=O)(=O)c1ccc(C2=C(c3ccccc3)C(=O)OC2)cc1 : 326

====

TEST_SUMMARY: 101 and 102 PK studies combined (fasted)
Assay type: in vivo
CONDITION_LABEL: human, plasma, oral, 12.5 mg, read-out: median t1/2 (converted)
READOUT_TYPE: half-life (h)

1) CS(=O)(=O)c1ccc(C2=C(c3ccccc3)C(=O)OC2)cc1 [TRM-201] : 12

====

TEST_SUMMARY: TRM-201-PK-102 single-dose four-period crossover pharmacokinetic study, fasted healthy subjects
Assay type: in vivo, human
CONDITION_LABEL: male, human, plasma, oral, 25 mg, 102 study, males, read-out: arithmetic mean AUC0-∞
Method: A Single-Dose, Open-Label, Phase 1, Four-Period Crossover Pharmacokinetic Study of TRM-201 (Rofecoxib) 12.5 mg, 17.5 mg, 20 mg and 25 mg Administered to Healthy Subjects in a Fasting State, with Comparison to Historical Pharmacokinetic Parameters of Previously Marketed Rofecoxib (“TRM-201-PK-102” or “102 PK Study”) […] In each of the four dosing periods, subjects fasted overnight for at least 10 hours before study drug dosing. […] Pharmacokinetic and safety endpoints were evaluated. […]
READOUT_TYPE: AUC(0-inf) (ng·h/mL)

1) CS(=O)(=O)c1ccc(C2=C(c3ccccc3)C(=O)OC2)cc1 : 4080

Sourced from patent US10945992B1
